Source of measurements: patent US20220064276A1

testedTarget: T1, human LTBP3-proTGFβ1 complex (human, UniProt Q9NS15 44-1303; P01137 30-390, limits assumed)
T1 construct: Exemplary entries; also called Hu LTBP3-proTGFβ1; huLTBP3 proTGFb1
T1 sequence (Q9NS15 44-1303 limits assumed, chain 1 of 2): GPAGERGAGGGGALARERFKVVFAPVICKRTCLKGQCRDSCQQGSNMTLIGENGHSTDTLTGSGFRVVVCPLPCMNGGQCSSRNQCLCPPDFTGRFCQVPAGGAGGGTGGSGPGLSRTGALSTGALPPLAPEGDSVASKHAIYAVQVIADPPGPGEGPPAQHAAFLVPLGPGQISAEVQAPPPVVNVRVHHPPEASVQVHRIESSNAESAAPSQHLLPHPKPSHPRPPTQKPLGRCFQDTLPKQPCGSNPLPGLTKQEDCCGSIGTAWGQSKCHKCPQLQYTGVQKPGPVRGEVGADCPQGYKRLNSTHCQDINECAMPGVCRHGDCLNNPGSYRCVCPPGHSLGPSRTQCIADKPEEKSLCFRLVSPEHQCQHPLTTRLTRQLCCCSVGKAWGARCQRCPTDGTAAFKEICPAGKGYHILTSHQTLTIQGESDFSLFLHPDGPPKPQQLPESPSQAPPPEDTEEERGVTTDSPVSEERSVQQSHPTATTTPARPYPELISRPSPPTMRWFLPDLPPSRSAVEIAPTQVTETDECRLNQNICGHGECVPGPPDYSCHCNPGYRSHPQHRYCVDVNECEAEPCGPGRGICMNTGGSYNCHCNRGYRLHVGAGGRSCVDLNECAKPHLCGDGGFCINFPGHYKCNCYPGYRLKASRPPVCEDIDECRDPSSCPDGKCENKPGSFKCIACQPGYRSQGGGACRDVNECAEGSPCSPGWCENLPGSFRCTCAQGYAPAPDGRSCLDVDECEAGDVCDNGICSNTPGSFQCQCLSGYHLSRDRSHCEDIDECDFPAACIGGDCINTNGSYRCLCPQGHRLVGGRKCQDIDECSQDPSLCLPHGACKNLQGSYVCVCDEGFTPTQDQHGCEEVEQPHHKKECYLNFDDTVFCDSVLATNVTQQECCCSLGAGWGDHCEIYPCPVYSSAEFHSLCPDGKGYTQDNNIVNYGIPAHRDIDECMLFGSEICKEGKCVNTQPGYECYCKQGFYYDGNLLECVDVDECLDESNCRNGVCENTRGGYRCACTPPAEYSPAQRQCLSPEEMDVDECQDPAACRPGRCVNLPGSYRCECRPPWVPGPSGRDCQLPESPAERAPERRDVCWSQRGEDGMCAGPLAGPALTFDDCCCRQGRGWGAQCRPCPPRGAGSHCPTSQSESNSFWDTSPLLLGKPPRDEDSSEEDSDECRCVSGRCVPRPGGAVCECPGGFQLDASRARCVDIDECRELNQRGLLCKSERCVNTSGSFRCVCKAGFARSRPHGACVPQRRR
T1 sequence (P01137 30-390 limits assumed, chain 2 of 2): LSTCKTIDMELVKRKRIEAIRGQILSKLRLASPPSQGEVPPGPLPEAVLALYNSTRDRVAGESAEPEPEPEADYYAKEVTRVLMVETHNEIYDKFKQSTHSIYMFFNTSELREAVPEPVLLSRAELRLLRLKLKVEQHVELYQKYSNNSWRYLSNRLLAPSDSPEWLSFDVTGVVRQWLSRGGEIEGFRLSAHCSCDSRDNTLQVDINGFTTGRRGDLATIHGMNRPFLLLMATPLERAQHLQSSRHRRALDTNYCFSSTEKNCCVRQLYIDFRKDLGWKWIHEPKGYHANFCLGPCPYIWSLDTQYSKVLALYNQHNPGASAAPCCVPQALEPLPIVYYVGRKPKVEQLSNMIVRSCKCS
assayMethodText: Octet BLI, IgG captured
Examples of binders with documented koff follow.
Express it in s⁻¹; write the number only.

Would you please look over these solved cases?
SR-AB43 (antibody, IgG1, V domains shown, Cycle 3, lineage SR-AB23) VH: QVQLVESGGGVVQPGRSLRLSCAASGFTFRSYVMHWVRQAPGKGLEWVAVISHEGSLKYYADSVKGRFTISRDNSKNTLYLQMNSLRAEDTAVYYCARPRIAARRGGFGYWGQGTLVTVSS VL: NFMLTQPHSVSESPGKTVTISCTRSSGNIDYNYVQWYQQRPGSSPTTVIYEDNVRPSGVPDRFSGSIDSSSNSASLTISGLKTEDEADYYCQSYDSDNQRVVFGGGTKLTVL = 6e-05
SR-AB37 (antibody, IgG1, V domains shown, Cycle 3, lineage SR-AB22) VH: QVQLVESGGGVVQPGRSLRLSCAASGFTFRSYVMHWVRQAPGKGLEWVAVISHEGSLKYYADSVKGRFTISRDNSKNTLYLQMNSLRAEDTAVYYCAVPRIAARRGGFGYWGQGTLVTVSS VL: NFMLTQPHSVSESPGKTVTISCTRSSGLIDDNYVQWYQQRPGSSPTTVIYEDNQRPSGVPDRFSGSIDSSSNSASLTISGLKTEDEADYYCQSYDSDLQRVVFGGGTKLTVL = 7.58e-05
SR-AB42 (antibody, IgG1, V domains shown, Cycle 3, lineage SR-AB23) VH: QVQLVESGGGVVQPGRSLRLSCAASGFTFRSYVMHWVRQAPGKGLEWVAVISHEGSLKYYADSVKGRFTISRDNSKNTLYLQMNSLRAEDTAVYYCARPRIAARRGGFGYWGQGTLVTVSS VL: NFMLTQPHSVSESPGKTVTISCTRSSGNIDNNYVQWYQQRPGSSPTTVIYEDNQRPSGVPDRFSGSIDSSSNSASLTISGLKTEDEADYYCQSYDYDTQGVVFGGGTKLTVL = 6e-05

Shifting focus to the binder that follows.
// koff value for SR-AB40 (antibody, IgG1, V domains shown, Cycle 3, lineage SR-AB23) VH: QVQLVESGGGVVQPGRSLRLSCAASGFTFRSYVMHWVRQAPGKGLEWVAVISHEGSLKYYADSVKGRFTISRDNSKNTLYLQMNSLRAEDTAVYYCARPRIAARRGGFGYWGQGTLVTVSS VL: NFMLTQPHSVSESPGKTVTISCTRSSGNIDNNYVQWYQQRPGSSPTTVIYEDNQRPSGVPDRFSGSIDSSSNSASLTISGLKTEDEADYYCQSYDYSNQGVVFGGGTKLTVL : 6.07e-05
